# Subject of test: T1, human CD22 domain5-7-His (human, UniProt P20273 414-687)
# T1 construct: also called hCD22 domain5-7-His; not shown: His tag
# T1 sequence: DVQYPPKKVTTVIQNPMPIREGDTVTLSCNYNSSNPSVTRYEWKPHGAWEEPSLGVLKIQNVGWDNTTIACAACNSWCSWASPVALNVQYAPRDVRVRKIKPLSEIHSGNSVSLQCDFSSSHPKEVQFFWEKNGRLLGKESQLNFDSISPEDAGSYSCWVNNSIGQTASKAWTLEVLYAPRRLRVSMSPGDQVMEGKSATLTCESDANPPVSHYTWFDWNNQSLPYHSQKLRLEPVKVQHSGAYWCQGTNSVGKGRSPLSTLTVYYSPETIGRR
# Assay protocol: ELISA, human CD22 domain5-7-His coated
Reported endpoint: EC50 (read off the curve)

Worked set:
F2.151.13 (antibody, human IgG1, lambda, V domains shown, Human-murine chimeric IgG1, lambda) VH: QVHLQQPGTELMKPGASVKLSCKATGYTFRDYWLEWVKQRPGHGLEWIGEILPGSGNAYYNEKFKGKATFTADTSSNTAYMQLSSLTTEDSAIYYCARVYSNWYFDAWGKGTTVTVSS VL: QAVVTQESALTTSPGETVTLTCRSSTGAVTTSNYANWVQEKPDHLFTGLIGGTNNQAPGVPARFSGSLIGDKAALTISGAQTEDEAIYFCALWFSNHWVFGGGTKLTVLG :: ~0.05 nM
F1.192.1 (antibody, human IgG1, kappa, V domains shown, Human-murine chimeric IgG1, kappa) VH: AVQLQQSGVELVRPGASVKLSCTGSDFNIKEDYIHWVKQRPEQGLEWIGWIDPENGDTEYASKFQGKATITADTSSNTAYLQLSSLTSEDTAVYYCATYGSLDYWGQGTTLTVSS VL: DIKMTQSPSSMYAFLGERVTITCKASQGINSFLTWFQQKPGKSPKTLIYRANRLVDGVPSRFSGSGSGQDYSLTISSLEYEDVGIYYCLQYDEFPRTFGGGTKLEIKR :: ~0.1 nM
F1.105.11 (antibody, human IgG1, kappa, V domains shown, Human-murine chimeric IgG1, kappa) VH: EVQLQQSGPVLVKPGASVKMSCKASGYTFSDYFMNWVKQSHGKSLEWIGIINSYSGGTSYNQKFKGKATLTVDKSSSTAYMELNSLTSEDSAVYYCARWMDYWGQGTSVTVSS VL: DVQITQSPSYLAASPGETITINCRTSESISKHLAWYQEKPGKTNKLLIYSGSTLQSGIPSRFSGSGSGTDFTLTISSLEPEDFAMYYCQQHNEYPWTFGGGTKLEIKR :: ~0.1 nM
F1.60.9 (antibody, human IgG1, kappa, V domains shown, Human-murine chimeric IgG1, kappa) VH: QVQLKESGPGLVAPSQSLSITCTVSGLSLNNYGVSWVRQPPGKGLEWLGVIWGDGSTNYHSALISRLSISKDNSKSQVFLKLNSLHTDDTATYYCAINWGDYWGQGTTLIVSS VL: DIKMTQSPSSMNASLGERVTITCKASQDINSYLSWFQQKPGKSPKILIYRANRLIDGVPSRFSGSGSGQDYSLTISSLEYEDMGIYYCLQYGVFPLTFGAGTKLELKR :: ~0.1 nM

IN: Quick check: EC50 (read off the curve) of F1.200.11 (antibody, human IgG1, kappa, V domains shown, Human-murine chimeric IgG1, kappa) VH: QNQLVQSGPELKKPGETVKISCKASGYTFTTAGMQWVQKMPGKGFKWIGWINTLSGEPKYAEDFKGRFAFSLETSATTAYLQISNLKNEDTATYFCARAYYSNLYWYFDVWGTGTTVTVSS VL: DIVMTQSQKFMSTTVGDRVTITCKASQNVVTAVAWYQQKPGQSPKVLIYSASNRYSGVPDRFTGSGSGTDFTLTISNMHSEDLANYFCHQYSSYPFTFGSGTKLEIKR ?
OUT: ~0.03 nM
